- EXPERIMENTAL TARGET: mouse melanocortin-4 receptor (mouse, UniProt P56450 1-332)
- Sequence (P56450 whole entry): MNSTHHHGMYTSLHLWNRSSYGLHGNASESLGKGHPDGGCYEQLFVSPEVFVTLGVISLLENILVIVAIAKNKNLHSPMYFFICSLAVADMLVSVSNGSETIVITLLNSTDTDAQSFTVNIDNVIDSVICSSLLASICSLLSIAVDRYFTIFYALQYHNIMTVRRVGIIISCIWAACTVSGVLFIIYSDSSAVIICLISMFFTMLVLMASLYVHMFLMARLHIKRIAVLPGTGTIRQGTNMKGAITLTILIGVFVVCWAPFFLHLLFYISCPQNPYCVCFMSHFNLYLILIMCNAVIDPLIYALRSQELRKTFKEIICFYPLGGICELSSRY
- PROCEDURE DETAILS: cell-based or functional assay
Bridges are numbered along the chain shown (N, C = ends). Where no end group is shown, it is not given here. [ ]: non-standard residue; d: D form. Dap = NC[C@H](N)C(=O)O
MEASURE: EC50 (agonist) (µM)
Give the value in µM but do not write µM after it.

Req: Could you please provide reported EC50 (agonist) for YDWR[dF]NAF[Dap]Y-NH2 (lactam 2-9; N-terminus assumed; SMILES C[C@@H]1NC(=O)[C@H](CC(N)=O)NC(=O)[C@@H](Cc2ccccc2)NC(=O)[C@H](CCCNC(=N)N)NC(=O)[C@H](Cc2c[nH]c3ccccc23)NC(=O)[C@@H](NC(=O)[C@@H](N)Cc2ccc(O)cc2)CC(=O)NC[C@@H](C(=O)N[C@@H](Cc2ccc(O)cc2)C(N)=O)NC(=O)[C@H](Cc2ccccc2)NC1=O) [SEQ ID NO:5 (Tyr-c[Asp-Trp-Arg-DPhe-Asn-Ala-Phe-Dpr]-Tyr)] ? Thanks!
Resp: 10.9

Req: Could you please provide reported EC50 (agonist) for YDHXRANAFXY (Asp-Dpr side chain lactam bridge; Dpr; DPhe; C-terminal amide (amide resin)) [SEQ ID NO:27 (Tyr-c[Asp-His-DPhe-Arg-Ala-Asn-Ala-Phe-Dpr]-Tyr)] ? Thanks!
Resp: 0.71

Origin of the recorded values: patent US7084111
